These data points were gathered from ChEMBL document CHEMBL1201862.

Exercise: for every item that follows, state its recorded IC50.
Target: COUP transcription factor 2 (Homo sapiens);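 also: HEK293 cells transiently cotransfected with COUP-TFII expression vector and reporter; luciferase reporter luminescence driven by COUP-TFII from the pX2-168 reporter plasmid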
Sequence (P24468 whole entry): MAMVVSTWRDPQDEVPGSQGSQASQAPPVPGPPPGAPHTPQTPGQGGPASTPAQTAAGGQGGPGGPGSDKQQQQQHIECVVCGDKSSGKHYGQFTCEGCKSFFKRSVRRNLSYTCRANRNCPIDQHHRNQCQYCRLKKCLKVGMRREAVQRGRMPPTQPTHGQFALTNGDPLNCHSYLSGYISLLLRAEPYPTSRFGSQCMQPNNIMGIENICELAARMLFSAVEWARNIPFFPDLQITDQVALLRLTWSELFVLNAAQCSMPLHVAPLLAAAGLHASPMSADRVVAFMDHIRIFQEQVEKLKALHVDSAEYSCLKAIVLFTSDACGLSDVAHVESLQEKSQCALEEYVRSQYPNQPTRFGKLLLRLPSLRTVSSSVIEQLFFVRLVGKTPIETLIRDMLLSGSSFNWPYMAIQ
Assay: Luminescence-based cell-based high throughput dose response assay to identify inhibitors of COUP-TFII (NR2F2).
Format: functional
Activity calls are given as the source filed them. Rule as the data show it: active = IC50 of 10 µM or less and inactive = more.

# batch: return IC50 for each of the 3 compounds below
1. Cc1c(C(=O)NCc2ccc(C(C)C)cc2)sc(=O)n1Cc1ccc(S(=O)(=O)N(C)C)cc1
2. Cc1ccc(-c2csc(NC(=O)C3CCN(S(=O)(=O)c4cccs4)CC3)n2)cc1
3. COc1ccc(CCNC(=O)C(C)n2nc(C)c3c(C)n(-c4ccc(C)cc4)nc3c2=O)c(OC)c1 (centres undefined)

1. 6.46 µM (active)
2. 8.11 µM (active)
3. 5.2 µM (active)

Quick one: IC50 of COc1cc(NC(=O)COc2cc(O)c3c(c2)OC(C)(C)CC3=O)cc(OC)c1OC ? 2.54 µM (active)
